target: Chromobox protein homolog 7 (Homo sapiens) (UniProt O95931); assay: blockers of CBX7 binding to H3K27me3 peptide – biochemical, AlphaScreen, primary screen (AID 1224903); settings: AlphaScreen His6-CBX7 / biotin-H3K27me3 peptide binding, stronger effect = lower value; measured here: z-score of CBX7 signal
Sequence (O95931 whole entry, looked up): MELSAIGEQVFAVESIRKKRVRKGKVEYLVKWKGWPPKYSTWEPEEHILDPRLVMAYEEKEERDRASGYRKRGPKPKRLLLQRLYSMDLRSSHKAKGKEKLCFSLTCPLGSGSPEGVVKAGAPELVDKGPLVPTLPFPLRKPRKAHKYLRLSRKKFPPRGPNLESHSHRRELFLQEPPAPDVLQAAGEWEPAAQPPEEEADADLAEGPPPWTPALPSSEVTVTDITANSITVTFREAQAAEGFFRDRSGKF
Out of some 66,000 compounds screened, about 720 (1.1%) were called active. Only a selection was taken, and actives are over-represented in it overall.
observed_property: z-score
Answers are plain numbers.

Some solved entries appear below for comparison.
Prompt: Lookup: z-score / Chromobox protein homolog 7 (Homo sapiens) (UniProt O95931) / Cc1cccc(CCNC(=O)CN2CCN(Cc3ccc(F)cc3Cl)C2=O)c1
Completion: 0.228

Prompt: Lookup: z-score / Chromobox protein homolog 7 (Homo sapiens) (UniProt O95931) / O=C(Nc1ccccc1Cl)N1CCCCC1c1cccnc1 (centres undefined)
Completion: -0.051

Prompt: Lookup: z-score / Chromobox protein homolog 7 (Homo sapiens) (UniProt O95931) / O=C(NC1CCCC1)c1nn2c(C(F)(F)F)cc(-c3ccc(F)cc3)nc2c1Cl
Completion: 0.569

Prompt: Lookup: z-score / Chromobox protein homolog 7 (Homo sapiens) (UniProt O95931) / O=C(COc1ccc(Cl)cc1)NCc1nnc(SCC(=O)NCC2CCCO2)o1 (centres undefined)
Completion: 1.76

Prompt: Lookup: z-score / Chromobox protein homolog 7 (Homo sapiens) (UniProt O95931) / Cc1cccc(C)c1Nc1c(-c2ccsc2)nc2cnccn12
Completion: -0.669

Hi team, please reply with z-score for each item in this list.
1. O=C(c1ccc(NC2=NC3CS(=O)(=O)CC3S2)cc1)N1CCN(C2CCCCC2)CC1 (centres undefined)
2. CCCCn1c(C2CC(=O)N(c3ccc(CC)cc3)C2)nc2ccccc21 (centres undefined)

Completion:
[1.03, -0.9]

Hi team, please reply with z-score for each item in this list.
1. CCOc1ccc(CNC(=O)C(C)N2C(=O)COc3ccc(C)cc32)cc1 (centres undefined)
2. CC(=O)Oc1ccc(C2CC(=O)Nc3cc4c(cc32)OCO4)cc1 (centres undefined)

Completion:
1: -10.5; 2: -0.494
